Taken from PubChem BioAssay AID1159580.

# test-name: chemical genetic growth profiling, strain panel (AID 1159580);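 also: tested at 20 µM; growth read once vehicle control cultures reached saturation at 30 °C; 1 = growth at the plate median or of vehicle wells; lower values mean less growth of the strain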
# experimental-conditions: S. cerevisiae deletion strains, growth OD, locus YBR279W, strain paf1
Screen size: about 5,500 compounds; about 2,000 (36%) were called active. Not shown: some 18% with an inconclusive outcome. Rule as the data show it: active = normalized growth mostly below about 0.91 (no sharp cut-off); inconclusive = no clear call, values can overlap the other calls; inactive = mostly above about 0.92. This is one part of the list.
Allowed answers: 1 = active, -1 = inactive

Past entries and their recorded results:
>>> class("CC1=CC(=O)c2c(O)cccc2C1=O")
1
>>> class("CN(C)CCCN1c2ccccc2CCc2ccc(Cl)cc21")
-1
>>> class("COc1ccc(C2Sc3ccccc3N(CCN(C)C)C(=O)C2OC(C)=O)cc1 (centres undefined)")
-1

Continue with the compound presented below.
Enquiry: Hi team, can someone confirm the assay call for `CN(C)[C@@H]1C(=O)C(C(=O)NCN2CCCC2)=C(O)[C@@]2(O)C(=O)C3=C(O)c4c(O)cccc4[C@@](C)(O)[C@H]3C[C@@H]12` ?
Return: -1

----------
# test-name: chemical genetic growth profiling, strain panel (AID 1159580);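 also: tested at 20 µM; growth read once vehicle control cultures reached saturation at 30 °C; 1 = growth at the plate median or of vehicle wells; lower values mean less growth of the strain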
# experimental-conditions: S. cerevisiae deletion strains, growth OD, locus YOL012C, strain htz1
Among all 5,500 compounds or so, about 2,000 (36%) were called active. Inconclusive results (about 18%) are left out. This is one part of the list.
Would you mind labelling by normalized growth? At or over 0.9 is rule met, under is rule not met.

Past entries and their recorded results:
>>> class("NS(=O)(=O)c1cc2c(cc1Cl)NC(CSCc1ccccc1)=NS2(=O)=O")
"rule not met"
>>> class("COC(=O)c1c(C)c2c(c(C)c1OC)OC(=O)c1c(C)c(Cl)c(OC)c(Cl)c1O2")
"rule not met"
>>> class("C[C@H](CCC(=O)O)[C@H]1CCC2C3C(=O)CC4CC(=O)CC[C@]4(C)C3CC(=O)[C@@]21C (some centres undefined)")
"rule met"
>>> class("COC(=O)c1c(C)c2c(c(C)c1O)OC(=O)c1c(C)c(Cl)c(O)c(Cl)c1O2")
"rule met"

Enquiry: Hello, I need to know if C=C(C)C1(O)OC(=O)C=C1OC (centres undefined) has measured normalized growth not below 0.9. Thanks!
Return: rule met

Enquiry: Same for `CN[C@@H]1[C@H](O)[C@H](NC)[C@H]2O[C@@]3(O)C(=O)C[C@@H](C)O[C@H]3O[C@@H]2[C@H]1O`
Return: rule met

----------
# test-name: chemical genetic growth profiling, strain panel (AID 1159580);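 also: tested at 20 µM; growth read once vehicle control cultures reached saturation at 30 °C; 1 = growth at the plate median or of vehicle wells; lower values mean less growth of the strain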
# experimental-conditions: S. cerevisiae deletion strains, growth OD, locus YKL085W, strain MDH1 (second series), active compounds read low
Screen size: about 5,500 compounds; about 2,000 (36%) were called active. Roughly 18% stayed inconclusive and do not appear here. Some of the results follow.
readout-label: normalized growth
Lab note: jot the number down without any unit.

As a guide, the following entries are already answered.
>>> reported("CCCc1cc(=O)[nH]c(=S)[nH]1")
1
>>> reported("CC(C)CCCC(C)[C@H]1CCC2C3CC[C@@H]4C[C@H](O)CC[C@]4(C)C3CC[C@@]21C (some centres undefined)")
1.01
>>> reported("C/C1=C\\CC(C)(C)/C=C/CC2(C)OC2CC1 (centres undefined)")
1.01
>>> reported("CC(C)CCCC(C)[C@H]1CCC2C3CC=C4CC(=O)CC[C@]4(C)C3CC[C@@]21C (some centres undefined)")
0.99
>>> reported("CC(C)CCCC(C)C1CCC2C3=CC[C@H]4C[C@@H](O)CC[C@]4(C)C3CC[C@@]21C (some centres undefined)")
0.988
>>> reported("CC(C)CCCC(C)C1CCC2C3C[C@@H](O)[C@@]4(O)C[C@@H](O)CC[C@]4(C)C3CC[C@]12C (some centres undefined)")
1.01
>>> reported("CC(C)CCCC(C)[C@H]1CCC2C3CC=C4C[C@@H](O)CC[C@]4(C)C3CC[C@@]21C (some centres undefined)")
0.999
>>> reported("CC(=O)OCC(=O)[C@@]1(O)[C@H](C)CC2C3CCC4=CC(=O)C=C[C@]4(C)[C@@]3(F)[C@@H](O)C[C@@]21C (some centres undefined)")
1.03

Enquiry: Quick check: normalized growth of CC(C)CCCC(C)C1CCC2C3CC(=O)[C@H]4C[C@@H](O)CC[C@]4(C)C3CC[C@]12C (some centres undefined) ?
Return: 1.01
